// mu-IL1RaP ELISA (OD) lookup, one value per entry
# Assay System: T1, mIL1RAcP-Fc (murine, UniProt Q61730 21-359)
# T1 construct: also called P013_04; P013-04
# T1 sequence (looked up): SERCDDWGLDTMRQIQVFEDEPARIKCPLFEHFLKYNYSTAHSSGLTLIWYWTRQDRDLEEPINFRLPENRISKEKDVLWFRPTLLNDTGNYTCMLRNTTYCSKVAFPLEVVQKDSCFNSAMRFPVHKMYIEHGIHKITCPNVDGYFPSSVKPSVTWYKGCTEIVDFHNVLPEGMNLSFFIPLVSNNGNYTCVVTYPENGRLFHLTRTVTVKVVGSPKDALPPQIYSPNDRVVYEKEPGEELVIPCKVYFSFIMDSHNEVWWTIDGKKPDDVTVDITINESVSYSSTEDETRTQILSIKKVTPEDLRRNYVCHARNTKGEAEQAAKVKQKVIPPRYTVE
# Assay Notes: ELISA, primary supernatant, coated mu-IL-1RAcP-Fc
Answer with a number only, understood to be in OD.

| Binder | Unit Spec | Value |
| --- | --- | --- |
| P013.S.01.B.A04 (antibody, V domains shown, rabbit monoclonal antibody; also called P013.A.00085.C03) VH: QEQLEESGGGLVKPGGTLTLTCKASGIDFSSYYYMCWVRQAPGKGLEWIACIFIGYGDVTWYASWAKGRFTISKASSTTVTLQMTSLTAADTATYFCARALGSSGYRVNLWGPGTLVTVSS VL: ALVMTQTPSSVSAAVGGTVTINCQASENIYSSLAWYQQKPGQPPKLLIYDASDLASGVPSRFKGSGSGKEFTLTISDLESDDAATYYCQQGYYSGGTDNDVFGGGTEVVVK | OD | 0 |

mu-IL1RaP ELISA (OD) for P013.S.02.B.A05 (antibody, V domains shown, rabbit monoclonal antibody; also called P013.A.00031.D11) VH: QEQLVESGGGLVQPEGSLTLTCQASGFTFSSYYVICWVRQAPGKGLEWIACIGTGDGLTYYASWAKGRFTISKTSSTTVTLQMTSLTAADTATYFCARDRYATVSGILNLWGPGTLVTVSS VL: DVVMTQTPASVEAAVGGTVTIKCQASQNIYSNCAWYQQKLGQRPKLLIYYVSTLESGVPSRFEGSGYGTEFTLTISDLQSADAATYYCQYTYDSSSSTSWAFGGGTEVVVK ? 0

How about this binder: P013.S.01.B.G03 (antibody, V domains shown, rabbit monoclonal antibody; also called P013.A.00030.C03) VH: QEQLVESGGGLVQPEGSLTLTCKASGFDFSSNYYMCWVRQAPGKGLELIACIYTNSGNTWSASWAKGRFTISKTSSTTVTLQMTSLTAADTATYFCARDLNYPDTSNLWGQGTLVTVSS VL: DIVMTQTPASVEAAVGGTVTIKCQASQSIGYYLAWYQQKPGQPPKLLISRASTLASGVPSRFKGSGSGTQFTLTISDLESADVATYYCQSYYNSDSDAFGGGTEVVVK 0
